assay: yeast display, Sf9 membrane polyspecificity reagent, FACS + sequencing; frameworks hold sequencing errors
endpoint: polyreactivity (PSR sort gate)

Worked set:
sequenceData	polyreactivity (PSR sort gate)
QVQLVESGGALVQAGGSLRLSCAASGRTFYNYAMGWYRQAPGKEREFVASITTSGGSTYYADSVKGRFTISRDNAKNTVYLQMNSLIPEDTAVYYCARRAYRSWTRNSYEYYYWGQGTQVTVSS	high polyreactivity
QVQLVESGGGLVQAGGSRRLSCAASGNTFYANVMGWYRQAPGKERELVASITWSGGSTYYADSVKGRFTISRDNAKNTVYLQMNSLKPEDTAVYYCATSGDRLVWGQGTQVTVSS	low polyreactivity
QVQHVESGGGLVQAGGSLRLSCGASGITLYGYAMGWYRQAPGKEREFVAAISRSGDRTYYADSVKGRFTISRDNAKNTVYLQMNSLKPEDTAVYYCNAWRYDYWGQGTQVTVSS	high polyreactivity
QVQLVESGGGLVQAGGSLRLSCAASGRTFWSNGMGWYRQAPGKERELVASISTSGGRTYYADSVKGRFTISRDNAKNTVYLQMNSLKPEDSAVYYCAARTVYRGRAYDYWGQGTQVTVSS	high polyreactivity
QVQLVESGGGLVQAGGSLRLSCAASGLTLQGYVMGWSRQAPGKDRELVATISYSGGSTRYADSVKGRFTISRDNAKNTVYLQMNSLNPEDTAVYYCNRDSFHYYAERDYWGQGTQVTVSS	low polyreactivity
QVQLVESGGGLVQAGGSLRLSWAASGRIFIGYPMGWYRQAPGKERELVAAISRNGDNTYYADSVKGRFTISRDNAKNTVYLQMNSLKPEDSAVYYCAAVAYPREWKLSYEDGSWGYDYWGQGTQVTVSS	low polyreactivity

Consider the following items and state reported polyreactivity (PSR sort gate) for each.
1. QVQLVESGGGLVQAGGSLRLSCAASGRTFGYNALGWYRQAPGKERELVAAITRGGITHYADSVKGRFTISRDNAKNTVYIQKNSLKPEDTAGYYCAKRGPYYTDDEYYWGQGTQVTVSS
2. QVQLVESGGGLVQAGGSLRLSCAASGNTFGKYAMGWSRQAPGKERELLATITRRGGSTYYADSVKGRFTISRDNAKNTVYLQMNSLNPEDTAVYYCAAVVRYRQGVTRSIMDYWGQGTQVTVSS

1: low polyreactivity; 2: high polyreactivity

----------
assay: yeast display, Sf9 membrane polyspecificity reagent, FACS + sequencing; frameworks hold sequencing errors
endpoint: polyreactivity (PSR sort gate)

Worked set:
sequenceData	polyreactivity (PSR sort gate)
QVQLVESGGGLVQAGGSLRLTCAASGSIFKTNAMGWYRQAPGKERELVAAIRASGGSTYYADSVKGRFTISRDNAKNTVYLQMNSLKPEDTAVYYCAARYWFKYYWGQGTQVTVSS	low polyreactivity
QVQLVESGGGLVQAGGSLRLSCAASGSTFFINAMGWYRQGPGKERELVASISYSGGSTYYAHSVKGRFTISRDNAKNTVYLQLNSLKPEDTAVYYCNADVRVFLHYYKYNYWGQGTQVTVSS	low polyreactivity
QVQLVESVGGLVQAGGSLRLSSAASGLIFNEYVMGWYRQAPGKERELVAGISRIGGSTYYADSVKGRFTISRDNAKNTVYLQMKSLKQEDTAVYYCARPNLLSGDYWGQGTQVTVSS	high polyreactivity
QVQLVESGGGLVQAGGSLRLSCAASGRIFDPNVMVRYRTAPGKERELVAAIRTSGGRTYYADSVKGRFTISRDNAKNTVYLQMNSLKPEDTAVYYCAALYKGKYDYWGQGTQVNVSS	high polyreactivity
QVQLVESGAGLVQAGGSLRLSCAASGFTFKSNAMGWYRQAPGKERELVATISWGGASTSYADSVKGRFTISRDNAKNNVYLQMNSLKPEDTAVYYCKVRAQRRHGGYDHWGLGTQVTVSS	low polyreactivity

Consider the following items and state reported polyreactivity (PSR sort gate) for each.
1. QVQLVESGGGLVQAGGSLRLSCAASGITFADNAMGWYRPAPGKERELVAAITSGGSTYYADSVKGRFTISRDNAKNTVYLQMNSLKPEDTAVYYCNVRVRRLFYWARLVAYDYWGQGTQVTVSS
2. QDQLVESGGGLVQAGCSLRLTCAASGSTFTSNAMGWYRQAPGKERYLVASISGSVGRTYYADSVKGRFTISRDNAKNTVYLQMNSLKPEDTAVYYCNDESRNLYSTQFDYWGQGTQVTVSS
3. QVHLHESGGGLVQAGGSLRLSCAASGTISYAGPMGWYRQAPGKEREFVAGIGVGSNTNYADSVKGRYTIIRDNAKNTLYLQKNSLKTEDTAVYYCAVAGYAPLGRPYWGQGTQVTVSS
4. QVQLVESGGGLGQAGGSLRLSCAASGFTFTYNDMGWYRQAPGKEREFVAAISSTGGSTYYADSVKGRFTISRDNAKNTVYLQMNSLKPEDTAVYYCAAEDSWYWDAWFDYWGQGTQVTVSS
5. QVQLIESGGGLVKAGGSLRLSCAASGSIFYRNTMGWYRQAPGKERELVARISWSGGRTYYADSVKGRFTISRDNAKNTVYLQMNSLKPEDTAVYYCAASTYGQRGTSYGYWGQGTQVTVSS
6. QVQLVESGGGLVQAGGSLRLSCAASGRIFGYYMGWYRQAPGKERELVARITFRGGSTYYADSVKGRFTISRDNAKNTVYLQMNSLKPEDTAVYYCNASGKGGSTNRSDYWGQGTQVTVSW

high polyreactivity
low polyreactivity
low polyreactivity
low polyreactivity
low polyreactivity
high polyreactivity

Consider the following items and state reported polyreactivity (PSR sort gate) for each.
1. QVQLVESGGGLVQAGGSLRLSCAASGRIFTFYAMGWYRQAPGKERELVAAISSGGSTYYADSVKGRFTISRDNAKNTVFLQMNILKPEDTAVYYCAAVPVWYADYDYWGQGTQVTVSS
2. QVQLVESGGGLVPAGGSLRLSCAASGSTFIAYTRGWYRKAPGKERELVAAISGTGGTTYADSVKGRFTISRDNAKNTVYLQMNSLKPEDTAVYYCAAQYRYTYWGQATQVTVSS

["low polyreactivity", "low polyreactivity"]

----------
experiment: yeast display, Sf9 membrane polyspecificity reagent, FACS + sequencing; frameworks hold sequencing errors

sequenceData	polyreactivity (PSR sort gate)
QVQLGESGGGLVQAGGSLRLSCAASGRIFSTYVMGLYRQAPGKERELVAAITRGGSTNYADSVKGRFTISRDNAKNTVYLQMNSLKPEDTADYYCNAQRRGTYYWGQGTQVTVSS	high polyreactivity
QVQLVESGGGLVQAGGSLRLSCAASGFTFEYYAMGWYRQARGKERELVASITNSGTRTYYADSVKGRFTISRDNAKNTVYLQMNSLKPEDTAVYYCAATPWNGRYSRFGYWGQGTQVTVSS	high polyreactivity
QVQLVESGGGLVQAGGSLRLSCAASGSTFRLYAMGWYRQAPGKERELVAAISSGGTTKYADSVKGRFTISRDNAKNTVYLQMNSLKPEDTAVYYCNRRARSYADDYWGQGTQVTVSS	high polyreactivity

----------
test: yeast display, Sf9 membrane polyspecificity reagent, FACS + sequencing; frameworks hold sequencing errors
endpoint: polyreactivity (PSR sort gate)

Worked set:
sequenceData	polyreactivity (PSR sort gate)
QVQLVESGGGLVQAGGSLRLSCAASGSIFEYYTMGWYRQAPGKERELVAGISWSGGSTYYADSVKGRFTISRDNAKNTVYLQMNSLKPEDTAVYYCAARSRSGRQEYYYWGQGTQVTVSS	high polyreactivity
QVQLVESVGGLVQAGGILRLSCAASGYTFGGSAKGWYRPAPGKERELVAAITRRGGSTYYADSVKGRFTISRDNAKNTVYLQMNSLKPEDTAVYYCAKRSGSYSYPAVGGWGLGYWGHGTQVTVSS	high polyreactivity
QVQLVESGGGLVQAGGSHRLSCAASGSTFYYYAMGWYRQAPGKERELVAAISKSGGRTYYADSVKGRFTFSRDNAKNTVYLQMNSLKPEDTAVYYCNAVQYLNGYDYWGQGTQVTVSS	high polyreactivity
QVQLVESGGGLFKAGGSLRLSCAASGRIFEKYAMGWYRQAPGKERELVAAISYSGGSTYYADSVKGRFTISRDNAKNTVYFQMNCLKPEDTAVYYCARYSRTQAYDYWGQGTQVTVSS	high polyreactivity
QGQLVESGGGLVQAGGSLRLSCAASGFTFKFYAMGWYRQAPGKEREFVAAISGSGGSTYYAHSVKGRFTISRDNAKNTVYLQMNSLKPEDTAVYYCAAEVPGKPYGRSRYSFRHDYWGQGTQVTVSS	low polyreactivity

Consider the following items and state reported polyreactivity (PSR sort gate) for each.
1. QVQLVESGGGLVQAGGSLRLSCAASGFTFEDNTMGWYRQAPGKERELVAAITWGGVSTYYADSVKGRFTISRDNAKNTVYLQMNSLKPEDTAVYYCARDYDVYTVYLMDYWGQGTQVTVSS
2. QVQLVESGGGLVQAGGSLRLSCAASGRIFYGYTMGWYRQAPGKERELVAAITQRGGNTHYADSVKGRFTISRDNGKNTVYLHMNRLKPEDTAVYYCAAKYYPYVRGVQYYYWGQGTQVTVSS
3. QVQIVESGRGLFQAGGSLRLSCAASGSIFRFNVMGWYRPATGKECELVASISDSGDNTNYADSVKGRFTISGDNAKNPVDLLMNSLKPEDTAVYYCAARGSRWYIAVDYRGQGTQVTVSS
4. QVQLVESGGGLVQAGGSLRLSCAASGSIFWGYDMGWYRQAPGKERELVASISYSGGSTSYADSVKGRFTISRDNAKNTVYLQMNSLKPEDTAVYYCAADEGGFWWTYPYDSWGQGTQVTVSS
5. QVQLVESGGGLVQAGGSLRLSCADSGSIFSYYAMGWYRQEPGKARELVASISRTGVSTHYADSVKGRFTISRDNAKNTVYLQMNSLKPEDNAVYYCNAKYLTWSYRYYYWGQGTQVTVSS
6. HVQLVESGGGLVQAGGSLRLRCAASGFTIRSYVMGWYRQAPGKERELVAAIRRSGGSTYYADSVKGRFTISRDNAKNTVYLQMNSLKPEDTAVYYCNTVSGYGQPRGDYWGQGTQVTVSS

1: low polyreactivity; 2: high polyreactivity; 3: low polyreactivity; 4: low polyreactivity; 5: high polyreactivity; 6: high polyreactivity

Consider the following items and state reported polyreactivity (PSR sort gate) for each.
1. QVQLVESCGGLVQAGGSLRLSCAASGFIFFANTMGWYRQAPGKERELVAAITSDGSTYYADSVKGRFTISRDNAKNTVYLQMNSLKPEDTAVYYCNAQSNYADLAYWNDYWGQGTKVTVSS
2. QVQLVESGGGLVQAGGSLRLSCAASGSIFIYNAMGWYRQAPGKERELVAAISSSGGSTYYADSVKGRFTISRDNAKNTVYLQMNSLKPEDTAVYYCAARTYYVRGLGGRPGMDYCGQGTQVTVSS
3. QVQLVESGRGLVQAGGSLRLSCAASGNTFNVNAMVWYRQEPGKERELVAAITRSGGITYYADSVKGRFTISRDNAKNTVYLQLNSMKPEDTAVYYCAVEGFGYAYYYFYEYDYWGQGTQVTVSS

1: low polyreactivity; 2: low polyreactivity; 3: high polyreactivity

src = the nanobody polyreactivity screen of Harvey et al. (2022)
